// data source = the NIST ThermoML archive (doi:10.1021/je900888e)

Overview of recorded mass density for various compounds
# experiment: mn = molality of the nth substance listed, in mol/kg
# details: 298.15 K; 101 kPa; Liquid; m2 = 0
Kindly answer with a numeric value in kg/m3, unit omitted.

Example entries and their recorded answers appear below.
{"compound": "CCO [ethanol] + CCCC[P+](CCCC)(CCCC)CCCC.[Br-]", "units symbol": "kg/m3", "readout number": 785.063}
{"compound": "CCCO [propan-1-ol] + CCCC[P+](CCCC)(CCCC)CCCC.[Br-]", "units symbol": "kg/m3", "readout number": 799.452}
{"compound": "CC(C)=O [acetone] + CCCC[P+](CCCC)(CCCC)CCCC.[Br-]", "units symbol": "kg/m3", "readout number": 784.234}

Prompt: Give the reported mass density for this compound. CC#N [acetonitrile] + CCCC[P+](CCCC)(CCCC)CCCC.[Br-]
Completion: 776.493

Prompt: Give the reported mass density for this compound. CCCCO [butan-1-ol] + CCCC[P+](CCCC)(CCCC)CCCC.[Br-]
Completion: 805.659

====

# experiment: mn = molality of the nth substance listed, in mol/kg
# details: 293.15 K; 101 kPa; Liquid; m2 = 0
measured parameter: mass density (kg/m3)
Kindly answer with a numeric value in kg/m3, unit omitted.

Example entries and their recorded answers appear below.
{"compound": "CC#N [acetonitrile] + CCCC[P+](CCCC)(CCCC)CCCC.[Br-]", "mass density [kg/m3]": 781.893}
{"compound": "CCCCO [butan-1-ol] + CCCC[P+](CCCC)(CCCC)CCCC.[Br-]", "mass density [kg/m3]": 809.472}
{"compound": "CC(C)=O [acetone] + CCCC[P+](CCCC)(CCCC)CCCC.[Br-]", "mass density [kg/m3]": 789.952}
{"compound": "CCO [ethanol] + CCCC[P+](CCCC)(CCCC)CCCC.[Br-]", "mass density [kg/m3]": 789.354}

API: the following record is the query input.
Prompt: Give the reported mass density for this compound. CCCO [propan-1-ol] + CCCC[P+](CCCC)(CCCC)CCCC.[Br-]
Completion: 803.46

====

Overview of recorded mass density for various compounds
# experiment: mn = molality of the nth substance listed, in mol/kg
# details: 308.15 K; 101 kPa; Liquid; m2 = 0
Kindly answer with a numeric value in kg/m3, unit omitted.

Example entries and their recorded answers appear below.
{"compound": "CC(C)=O [acetone] + CCCC[P+](CCCC)(CCCC)CCCC.[Br-]", "readout number": 772.661}
{"compound": "CCCCO [butan-1-ol] + CCCC[P+](CCCC)(CCCC)CCCC.[Br-]", "readout number": 797.945}
{"compound": "CCO [ethanol] + CCCC[P+](CCCC)(CCCC)CCCC.[Br-]", "readout number": 776.392}
{"compound": "CC#N [acetonitrile] + CCCC[P+](CCCC)(CCCC)CCCC.[Br-]", "readout number": 765.61}

API: the following record is the query input.
Prompt: Give the reported mass density for this compound. CCCO [propan-1-ol] + CCCC[P+](CCCC)(CCCC)CCCC.[Br-]
Completion: 791.344

====

# experiment: mn = molality of the nth substance listed, in mol/kg
# details: 303.15 K; 101 kPa; Liquid; m2 = 0
± gives the expanded uncertainty stated by the source.
measured parameter: mass density
Include the unit after the number when you answer.

Example entries and their recorded answers appear below.
{"compound": "CC(C)=O [acetone] + CCCC[P+](CCCC)(CCCC)CCCC.[Br-]", "mass density": "778.47 ± 0.26 kg/m3"}
{"compound": "CC#N [acetonitrile] + CCCC[P+](CCCC)(CCCC)CCCC.[Br-]", "mass density": "771.067 ± 0.26 kg/m3"}
{"compound": "CCCO [propan-1-ol] + CCCC[P+](CCCC)(CCCC)CCCC.[Br-]", "mass density": "795.414 ± 0.24 kg/m3"}

Prompt: Give the reported mass density for this compound. CCCCO [butan-1-ol] + CCCC[P+](CCCC)(CCCC)CCCC.[Br-]
Completion: 801.817 ± 0.23 kg/m3

Prompt: Give the reported mass density for this compound. CCO [ethanol] + CCCC[P+](CCCC)(CCCC)CCCC.[Br-]
Completion: 780.745 ± 0.25 kg/m3
